The reported measurements were obtained from the supplement of paper PMC10567573.

B1: KCTD10 (parent)
chain: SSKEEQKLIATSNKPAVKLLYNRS

variants of: B1; assay: protein stability index of a GFP-peptide fusion (GPS, HEK-293T) (PSI 1-6); higher = more stable; details: c terminus: a fixed tail appended;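 further: lentivirally expressed fusions sorted by FACS into six bins by GFP to DsRed ratio, PSI derived from sequencing read proportions per bin multiplied by bin number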
Decide by protein stability index: equal to or exceeding 4 means class 1, less means class 0.

[[record]]
variant_key = "A16M"
assigned_category = "class 0"

[[record]]
variant_key = "Q6G"
assigned_category = "class 0"

[[record]]
variant_key = "S24V"
assigned_category = "class 0"

[[record]]
variant_key = "S12K"
assigned_category = "class 1"

[[record]]
variant_key = "S12H"
assigned_category = "class 0"

[[record]]
variant_key = "S2M"
assigned_category = "class 1"

[[record]]
variant_key = "L8R"
assigned_category = "class 1"

[[record]]
variant_key = "T11M"
assigned_category = "class 0"

[[record]]
variant_key = "L19V"
assigned_category = "class 1"

[[record]]
variant_key = "K7M"
assigned_category = "class 0"

[[record]]
variant_key = "L8G"
assigned_category = "class 1"

[[record]]
variant_key = "Q6E"
assigned_category = "class 1"

[[record]]
variant_key = "T11E"
assigned_category = "class 1"

[[record]]
variant_key = "K3Q"
assigned_category = "class 1"

[[record]]
variant_key = "S12Q"
assigned_category = "class 1"

[[record]]
variant_key = "L19Q"
assigned_category = "class 1"

[[record]]
variant_key = "A16Y"
assigned_category = "class 0"

[[record]]
variant_key = "Q6F"
assigned_category = "class 0"

[[record]]
variant_key = "N13W"
assigned_category = "class 0"

[[record]]
variant_key = "I9D"
assigned_category = "class 1"

[[record]]
variant_key = "A10M"
assigned_category = "class 0"

[[record]]
variant_key = "P15I"
assigned_category = "class 0"

[[record]]
variant_key = "A10E"
assigned_category = "class 1"

[[record]]
variant_key = "E4M"
assigned_category = "class 0"

[[record]]
variant_key = "S24D"
assigned_category = "class 1"

[[record]]
variant_key = "V17A"
assigned_category = "class 1"

[[record]]
variant_key = "T11G"
assigned_category = "class 1"

[[record]]
variant_key = "Y21V"
assigned_category = "class 0"

[[record]]
variant_key = "N13S"
assigned_category = "class 0"

[[record]]
variant_key = "E4V"
assigned_category = "class 0"

[[record]]
variant_key = "P15V"
assigned_category = "class 0"

[[record]]
variant_key = "N13E"
assigned_category = "class 1"

[[record]]
variant_key = "N22V"
assigned_category = "class 0"

[[record]]
variant_key = "V17N"
assigned_category = "class 1"

